Recorded values, source the supplement of paper PMC10567573.

B1: TRAF3IP2 (parent)
chain: PGQPLPGASVRGLHPVQKVILNYP

- Variants of: B1
- ASSAY METHOD TEXT: protein stability index of a GFP-peptide fusion (GPS, HEK-293T) (PSI 1-6); higher = more stable;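 further: lentivirally expressed fusions sorted by FACS into six bins by GFP to DsRed ratio, PSI derived from sequencing read proportions per bin multiplied by bin number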
- MEASUREMENT CONDITIONS: c terminus: a fixed tail appended
I would appreciate it if you labelled entries Satisfied when protein stability index is 3 or higher, otherwise Not satisfied.

PGQPLPGASVRGLHPAQKVILNYP [V16A] :: Satisfied
PGQPLPGASVRGLHPVQKVICNYP [L21C] :: Satisfied
PGQPLPGSSVRGLHPVQKVILNYP [A8S] :: Satisfied
PGQPLPGASVRGLHPVQKPILNYP [V19P] :: Satisfied
PGQPLPGASVRGGHPVQKVILNYP [L13G] :: Satisfied

Exercise: Exam item: decide whether the reported protein stability index for PGQPLPGASVTGLHPVQKVILNYP [R11T] is at least 3.
Key: Satisfied

Exercise: For PGQPLPGYSVRGLHPVQKVILNYP [A8Y] then?
Key: Not satisfied

Exercise: For PGQPLPGASVRGLHPVMKVILNYP [Q17M] then?
Key: Not satisfied

Exercise: For PGQPLPGASVQGLHPVQKVILNYP [R11Q] then?
Key: Satisfied

Exercise: For PGQPLPGISVRGLHPVQKVILNYP [A8I] then?
Key: Not satisfied

Exercise: For PGQPLPGASVRGLHPVQKVILCYP [N22C] then?
Key: Not satisfied

Exercise: For PGQPLPGASVRGLHPVQKIILNYP [V19I] then?
Key: Satisfied
